Reference source: paper PMC5059489

# tested.on: GSTO1 (Homo sapiens, UniProt P78417)
# Sequence (P78417 1-241): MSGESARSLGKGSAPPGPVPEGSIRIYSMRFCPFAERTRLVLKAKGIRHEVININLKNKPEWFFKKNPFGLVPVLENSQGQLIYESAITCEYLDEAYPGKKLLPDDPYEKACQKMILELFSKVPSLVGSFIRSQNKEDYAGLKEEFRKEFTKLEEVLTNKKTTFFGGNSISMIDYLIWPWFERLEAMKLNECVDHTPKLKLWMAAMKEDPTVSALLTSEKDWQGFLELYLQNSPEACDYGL
# protocol.text: GSTO1 substrate assay (reduction of 4-NPG)
# conditions.used: read-out: GSTO substrate assay IC50; cluster screening tables
Exercise: for every item that follows, state its recorded IC50.
Numbers only, in nM.

For orientation, consider the following solved cases.
O=C(CCl)Nc1ncc(Cc2ccccc2Cl)s1
125
O=C(CCl)Nc1ccc(Oc2ccc(Br)cc2)cc1
162
O=C(CCl)Nc1nc2cc3c(cc2s1)OCCO3
8670

List reported IC50 for each of these compounds:
1. COc1ccc(S(=O)(=O)N2CCCCCC2)cc1NC(=O)CCl
2. CN(CC1COc2ccccc2O1)C(=O)CCl (centres unmarked)
3. N#Cc1ccccc1S(=O)(=O)N1CCN(C(=O)CCl)CC1

stdout:
[221, 237, 156]

List reported IC50 for each of these compounds:
1. CN(C)S(=O)(=O)c1ccc2c(c1)CCCN2C(=O)CCl
2. O=C(CCl)N1CCN(Cc2ccccc2F)CC1
3. CC(C)C(C#N)N1CCN(C(=O)CCl)CC1 (centres unmarked)
4. CCN(CC)S(=O)(=O)c1ccc(CNC(=O)CCl)cc1
5. COC(=O)c1c(-c2ccccc2Cl)csc1NC(=O)CCl

stdout:
164
338
559
1480
62

List reported IC50 for each of these compounds:
1. O=C(CCl)Nc1cc2c(cc1Cl)OCCCO2
2. O=C(CCl)N1CCN(c2ncc(C(F)(F)F)cc2Cl)CC1
3. O=C(CCl)Nc1nc(-c2cccc([N+](=O)[O-])c2)cs1
4. O=C(CCl)N(CC(F)(F)F)c1ccc(Cl)cc1
5. CC1CCc2c(sc(NC(=O)CCl)c2C(N)=O)C1 (centres unmarked)
6. Cc1c(-c2ccccc2)sc(NC(=O)CCl)c1C(=O)N1CCOCC1

stdout:
1160
191
136
3800
119
360

List reported IC50 for each of these compounds:
1. CC(C)c1ccc(C(NC(=O)CCl)C(C)C)cc1 (centres unmarked)
2. COC(=O)c1ccc(C(=O)OC)c(NC(=O)CCl)c1
3. O=C(CCl)N1CCN(Cc2cccc3ccccc23)CC1

stdout:
7880
5680
381
